- Target: DPP-IV (Homo sapiens)
- Construct: purchased Enzyme Systems Products SPE-01
- Sequence (P27487 whole entry, species assumed): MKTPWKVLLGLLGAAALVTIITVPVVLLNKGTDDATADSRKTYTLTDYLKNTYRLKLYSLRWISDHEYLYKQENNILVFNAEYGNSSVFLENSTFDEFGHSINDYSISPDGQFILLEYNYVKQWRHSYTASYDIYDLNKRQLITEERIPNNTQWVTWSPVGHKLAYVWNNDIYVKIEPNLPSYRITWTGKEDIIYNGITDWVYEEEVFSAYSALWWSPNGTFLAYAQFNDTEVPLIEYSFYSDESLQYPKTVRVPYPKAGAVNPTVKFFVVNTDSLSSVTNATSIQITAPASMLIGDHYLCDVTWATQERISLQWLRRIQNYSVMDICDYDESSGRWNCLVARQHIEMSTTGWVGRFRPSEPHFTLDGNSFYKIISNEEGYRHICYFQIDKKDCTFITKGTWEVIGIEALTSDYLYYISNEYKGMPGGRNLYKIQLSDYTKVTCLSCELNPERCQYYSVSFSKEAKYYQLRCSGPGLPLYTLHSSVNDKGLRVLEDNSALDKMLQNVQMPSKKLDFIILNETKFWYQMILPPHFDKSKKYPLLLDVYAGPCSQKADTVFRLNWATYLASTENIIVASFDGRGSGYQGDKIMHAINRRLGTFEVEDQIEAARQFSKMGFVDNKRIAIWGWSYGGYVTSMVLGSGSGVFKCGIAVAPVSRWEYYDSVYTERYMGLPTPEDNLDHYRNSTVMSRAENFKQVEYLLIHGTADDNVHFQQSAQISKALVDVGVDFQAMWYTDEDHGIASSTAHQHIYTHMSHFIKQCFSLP
- Assay method text: In vitro assay for dipeptidyl peptidase inhibition
- Type: biochemical
- Conditions used: hydrochloride salts; Gly-Pro-4-methoxy B naphthylamide substrate; overnight at 37° C.; read-out: IC50 (concentration of test compound required for 50% inhibition)
Entries and their IC50

# count of solved cases: 3
Molecule	IC50
CN(CC(=O)N[C@H]1CC[C@H]([C@H](N)C(=O)N2CCCC2)CC1)C(=O)OCc1ccccc1 [Example 34]	0.1 to 0.5 µM
N[C@H](C(=O)N1CCCC1)[C@H]1CC[C@H](NC(=O)[C@H]2COCN2C(=O)OCc2ccccc2)CC1 [Example 8]	0.1 to 0.5 µM
N#C[C@@H]1CCCN1C(=O)[C@@H](N)[C@H]1CC[C@H](NC(=O)c2cc3ccoc3cn2)CC1 [Example 58]	≤ 0.1 µM

// moving on: another record for IC50
Lookup: If you can, please state the reported IC50 value of N[C@H](C(=O)N1CCSC1)[C@H]1CC[C@H](N2Cc3ccccc3S2(=O)=O)CC1 [Example 51] .
Found: ≤ 0.1 µM
